# credit: patent US20260152568A1

Biological target: human poliovirus receptor (PVR, CD155) expressed on cells (human) (UniProt P15151)
Assay: flow cytometry, binding to PVR-expressing HEK 293 cells
Recorded Metric: EC50 (nM)
The reply should contain only the number, in nM.

| Binder | Unit Abbreviation | EC50 |
| --- | --- | --- |
| humanized 5B9 variant VH5/VK3 (antibody, V domains shown) VH: QVQLVQSGAEVKKPGASVKVSCKATGYTFSNYWIEWVRQAPGQGLEWMGEIFPGSGRINFNEKFKGRVTFTADTSISTAYMELSRLRSDDTAVYYCARTKIYGNSFDYWGQGTLVTVSS VL: DIQMTQSPSSLSASVGDRVTITCRASQDVGTAVVWYQQKPGKAPKLLIYWASSRHEGVPSRFSGSGSGTDFTLTISSLQPEDFATYFCQQYSRYPLTFGQGTKLEIK | nM | 0.57 |

Sure, the documented EC50 for humanized 5B9 variant VH2/VK3 (antibody, V domains shown) VH: QVQLVQSGAEVKKPGASVKISCKATGYTFSNYWIEWIKQAPGQGLEWIGEIFPGSGRINFNEKFKGRATFTADTSIDTTYMELSRLRSDDTAVYYCARTKIYGNSFDYWGQGTLVTVSS VL: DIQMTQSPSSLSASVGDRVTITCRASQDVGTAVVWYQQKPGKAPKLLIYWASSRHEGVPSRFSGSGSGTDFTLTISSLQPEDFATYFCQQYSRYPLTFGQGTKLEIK is 0.6

Sure, the documented EC50 for humanized 5B9 variant VH3/VK2 (antibody, V domains shown) VH: QVQLVQSGAEVKKPGASVKVSCKATGYTFSNYWIEWIKQAPGQGLEWIGEIFPGSGRINFNEKFKGRVTFTADTSISTTYMELSRLRSDDTAVYYCARTKIYGNSFDYWGQGTLVTVSS VL: DIQMTQSPSSLSASVGDRVTITCKASQDVGTAVVWYQQKPGKAPKLLIYWASSRHEGVPDRFSGSGSGTDFTLTISSLQPEDFADYFCQQYSRYPLTFGQGTKLEIK is 0.52

Sure, the documented EC50 for humanized 5B9 variant VH2/VK2 (antibody, V domains shown) VH: QVQLVQSGAEVKKPGASVKISCKATGYTFSNYWIEWIKQAPGQGLEWIGEIFPGSGRINFNEKFKGRATFTADTSIDTTYMELSRLRSDDTAVYYCARTKIYGNSFDYWGQGTLVTVSS VL: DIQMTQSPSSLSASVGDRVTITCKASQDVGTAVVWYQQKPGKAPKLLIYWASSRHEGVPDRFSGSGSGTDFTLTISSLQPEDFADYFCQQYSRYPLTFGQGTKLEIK is 0.64

Sure, the documented EC50 for chimeric 5B9 N56E variant, IgG4(S241P) N56E_VH0/VK0 (antibody, name in Kabat numbering, V domains shown, Human IgG4 (S241P) constant region; also called chimeric N56E mutated parental antibody) VH: QVQLQQSGAELMKPGASVKISCKATGYTFSNYWIEWIKQRPGHGLEWIGEIFPGSGRINFNEKFKGKATFTADTSSDTTYMQLSSLTSADSAVYYCARTKIYGNSFDYWGQGTTLTVSP VL: DIMMTQSHKFMSTSVGDRVNITCKASQDVGTAVVWYQQKPGQSPKLLIYWASSRHEGVPDRFTGSGSGTDFTLTISNVQSEDLSDYFCQQYSRYPLTFGAGTKLELK is 0.79
